test system: T. cruzi epimastigotes; assay: Trypanocidal activity on T. cruzi epimastigotes (CL-B5 lacZ, CPRG); assay type: cell-based, Trypanosoma cruzi clone CL-B5; conditions: Trypanosoma cruzi, 72 h, epimastigotes, 72 h; read-out: Trypanocidal Activity IC50 T. cruzi
pIC50: −log10 of the molar value.
Exercise: state measured pIC50 for each of the compounds provided.

Use these answered entries as a reference point.
Record smiles: CC1(C)C=Cc2c(OC(=O)CCCc3cn(-c4ccccc4)nn3)c(OC(=O)CCCc3cn(-c4ccccc4)nn3)c3ccccc3c2O1
pIC50: < 3.59
//
Record smiles: CC1(C)C=Cc2c(OC(=O)CCc3cn(-c4ccccc4)nn3)c(OC(=O)CCc3cn(-c4ccccc4)nn3)c3ccccc3c2O1
pIC50: 4.16
//
Record smiles: CC1(C)C=Cc2c(OC(=O)CCc3cn(Cc4ccc([N+](=O)[O-])cc4)nn3)c(OC(=O)CCc3cn(Cc4ccc([N+](=O)[O-])cc4)nn3)c3ccccc3c2O1
pIC50: < 3.59
//
Record smiles: Cc1ccc(S(=O)(=O)n2cc(CCCC(=O)Oc3c4c(c5ccccc5c3OC(=O)CCCc3cn(S(=O)(=O)c5ccc(C)cc5)nn3)OC(C)(C)C=C4)nn2)cc1
pIC50: 4.61
//
Record smiles: CC1(C)C=Cc2c(OC(=O)CCc3cn(Cc4ccc(Br)cc4)nn3)c(OC(=O)CCc3cn(Cc4ccc(Br)cc4)nn3)c3ccccc3c2O1
pIC50: < 3.59

State the recorded pIC50 for every item in the following list.
1. CC1(C)C=Cc2c(OC(=O)CCCc3cn(Cc4ccc(Br)cc4)nn3)c(OC(=O)CCCc3cn(Cc4ccc(Br)cc4)nn3)c3ccccc3c2O1
2. CC(=O)O[C@@H]1[C@@H](OC(C)=O)[C@H](OC(C)=O)CO[C@H]1n1cc(CCC(=O)Oc2c3c(c4ccccc4c2OC(=O)CCc2cn([C@@H]4OC[C@@H](OC(C)=O)[C@H](OC(C)=O)[C@H]4OC(C)=O)nn2)OC(C)(C)C=C3)nn1

Ans.
< 3.59
< 3.59
